# Tested on: MOLT-4 leukemia
# experiment_notes: NCI tumour cell line growth inhibition, 48 h; in the data active = GI50 below about 0.43 µM; inactive = the rest
Form entry, call: pick from 1 (yes) = active, 0 (no) = inactive

entry_smiles: O=C(Nc1ccc(N2CCNCC2)cc1)c1[nH]ncc1Nc1ncnc2sc3c(c12)CCC3
class_assignment: 1 (yes)

entry_smiles: COc1ccc(Cl)cc1Nc1nc(C(F)(F)F)ccc1C(=O)N/N=C/c1c(Cl)cccc1Cl
class_assignment: 0 (no)

entry_smiles: Cc1cc(-c2ncc(CC(=O)Nc3ccc(-c4cnccn4)cn3)cc2C)ccn1
class_assignment: 0 (no)

entry_smiles: CCN(CC)CCOc1nc2ccc(OC)cc2c2c1-c1ccc(OC)cc1C2=O
class_assignment: 1 (yes)

entry_smiles: N#Cc1c(Sc2ccccc2N)cccc1Sc1ccccc1N
class_assignment: 0 (no)

API: the following record is the query input.
// param item: COc1ccc2c(c1)[nH]c(=O)c1c3cc(C)c(C)cc3cn21 ; yields the recorded call 1 (yes)

----------
Field: GI50. Provide a value for each of the compounds that follow.
# Tested on: A498 renal
# experiment_notes: NCI tumour cell line growth inhibition, 48 h
Non-standard residues stand in square brackets, D forms with d. Residues, ends and D or L forms follow the SMILES beside them. *: point of attachment. ONb = O=[N+]([O-])c1ccc(CO*)cc1; AllylGly = C=CC[CH](N)C(=O)O; Boc = CC(C)(C)OC(=O)*

compound: COc1ccc(N=C2CSc3nnc(-c4cc(F)c(Cl)cc4Cl)n3N2)cc1
GI50: 1540 nM
--
compound: C=CCC(NC(=O)OC(C)(C)C)C(=O)NC(CCC(=O)OCc1ccc([N+](=O)[O-])cc1)C(N)=O (centres undefined) (Boc-[AllylGly]-Glu(ONb)-NH2; configuration not given here)
GI50: 13.4 µg/mL
--
compound: Cc1ccc(CNc2c3ccccc3nc3ccccc23)cc1
GI50: 1210 nM

Batch request: GI50 per item, same order as input.
1. COc1ccc2c(c1)[nH]c(=O)c1c3cc(C)c(C)cc3cn21
2. O=C(CSc1nc2ccccc2[nH]1)Nc1ccc(-c2nc3ccccc3s2)c(Cl)c1
3. COc1ccc2nc(N/N=C(\C)c3ccccn3)cc(C)c2c1
4. CN1CC[C@@H](c2c(O)cc(O)c3c(=O)cc(-c4ccccc4Cl)oc23)[C@@H](O)C1

< 10 nM
2220 nM
812 nM
60.4 nM

Batch request: GI50 per item, same order as input.
1. CCC[CH2][Sn-]([CH2]CCC)([CH2]CCC)[O]c1cc(Cl)c(Cl)cc1Cl
2. COc1cc2c(cc1OC)C(=O)/C(=C/c1cccc(OCC(=O)c3ccccc3)c1)C2

1. 220 nM
2. 21700 nM

----------
# System: HOP-92 NSCLC
# experiment_notes: NCI tumour cell line growth inhibition, 48 h
measure_name: TGI (µM)
Give bare numbers, in µM.

entry_smiles: CC(=O)OC(Cc1cc(C=C(C(F)(F)F)C(F)(F)F)cc(C)n1)(C(F)(F)F)C(F)(F)F
TGI / µM: 2.32

entry_smiles: CCOC(=O)[C@@]1(C)C=C2O[C@@H]3OC4(CCCCC4)O[C@@H]3C2=C2C(O)=CC=C(O)[C@]21C(=O)OC
TGI / µM: 33.8

entry_smiles: CC(=O)Nc1ccc2c(c1)c(C1=C(c3cn(C)c4ccccc34)C(=O)NC1=O)cn2C
TGI / µM: 12

entry_smiles: COc1cc2c(cc1OC)C(=O)/C(=C/c1cccc(OCC(=O)c3ccccc3)c1)C2
TGI / µM: 27.8

entry_smiles: CC(C)/C(Cl)=N/OC(=O)Nc1ccc(F)c(Cl)c1
TGI / µM: 3

Batch request: TGI per item, same order as input.
1. O=C(Oc1ccc(Cl)cc1Cl)c1ccccc1Nc1ccnc(C(F)(F)F)c1
2. CN(C)c1ccc(/C=N/Nc2nc3ccccc3c(=O)n2-c2ccccc2)cc1

[43.4, 85.9]

Batch request: TGI per item, same order as input.
1. O=C(CCCCCCSc1nc(-c2ccccc2)cc(-c2ccc(Cl)cc2)n1)NO
2. Oc1ccc(/C=C\c2nnc(/C=C\c3ccc(O)c(O)c3)s2)cc1O

[5.44, 29.6]

Batch request: TGI per item, same order as input.
1. ClCc1cccc(Cn2cnc3c(Cl)ncnc32)c1
2. COc1ccc2c(c1)/C(=C\c1c(C)nc3sc(C)cn13)C(=O)N2C

1: 6.22; 2: 37

Sample COc1cc(O)c([C@@H]2C[C@H](CCc3ccc(O)cc3)O[C@H](c3ccc(O)cc3)C2)c(O)c1C(=O)/C=C/c1ccc(O)cc1 — what was its TGI? 4.96

----------
# System: OVCAR-8 ovarian
# experiment_notes: NCI tumour cell line growth inhibition, 48 h
measure_name: TGI

Past entries and their recorded results:
compound: O=C(Nc1ccc(N2CCNCC2)cc1)c1[nH]ncc1Nc1ncnc2sc3c(c12)CCC3
obs_value: 1.84 µM
//
compound: COc1ccc(N(C(=O)Nc2ccc(Cl)c(Cl)c2)c2ccccc2)cc1
obs_value: > 10 µM
//
compound: Cc1ccc2c(=O)cc(-c3csc4ccccc34)[nH]c2n1
obs_value: 5.55 µM
//
compound: O=C(Nc1ccccc1F)c1c(O)nc2sccn2c1=O
obs_value: > 10 µM
//
compound: COc1cc(/C(C#N)=C/c2ccc3c(c2OC)OCO3)cc2c1OCO2
obs_value: > 60.9 µM

Batch request: TGI per item, same order as input.
1. C=CC(=O)N1C/C(=C\c2ccc(N(C)C)cc2)C(=O)/C(=C/c2ccc(N(C)C)cc2)C1
2. CS(=O)(=O)CCNCc1nc(-c2ccc3ncnc(Nc4ccc(F)c(Cl)c4)c3c2)cs1

["> 100 µM", "> 25 µM"]

Batch request: TGI per item, same order as input.
1. COc1ccc(-c2nn3ncccc3c2-c2ccnc(Nc3ccc(Cl)c(C(F)(F)F)c3)n2)cc1
2. C=CCC(C)C12CCNC(Cc3ccc(O)cc31)C2C (stereo not given)
3. COc1cc(-c2nc3cc(F)ccc3s2)ccc1O

1. > 25 µM
2. > 100 µM
3. > 100 µM

----------
Field: TGI. Provide a value for each of the compounds that follow.
# Test system: OVCAR-4 ovarian
# experiment_notes: NCI tumour cell line growth inhibition, 48 h

compound: CCC(C)[C@H](NC(=O)N[C@H](C)c1ccccc1)C(=O)OC (stereo partly specified)
TGI: > 100 µM

Batch request: TGI per item, same order as input.
1. CC(C)C[C@H](NC(=O)[C@H](Cc1cccc2ccccc12)NC(=O)N1CCOCC1)B(O)O
2. N#Cc1c(-c2nc3ccccc3s2)c(=O)oc2cc(O)ccc12
3. O=C(CSc1nc2ccccc2[nH]1)Nc1ccc(-c2nc3ccccc3s2)c(Cl)c1

["> 100 µM", "> 100 µM", "> 100 µM"]

Batch request: TGI per item, same order as input.
1. CCOC(=O)c1ccc(NC(=O)N2CC(C)OC(C)C2)cc1 (stereo unspecified)
2. CCN(CC)CCOc1nc2ccc(OC)cc2c2c1-c1ccc(OC)cc1C2=O
3. COC(=O)Cc1ccc2c(c1)Sc1ccc(CC(=O)OC)cc1N2C

1. > 100 µM
2. 3.17 µM
3. > 100 µM

Batch request: TGI per item, same order as input.
1. O=P(O)(CCP(=O)(O)c1ccccc1)c1ccccc1
2. O=C(Nc1ccc(N2CCNCC2)cc1)c1[nH]ncc1Nc1ncnc2sc3c(c12)CCC3
3. O=C(NCCN(CCNC(=O)c1cccc(=O)n1O)CCN(CCNC(=O)c1cccc(=O)n1O)CCNC(=O)c1cccc(=O)n1O)c1cccc(=O)n1O
4. COc1cc2c3cc1Oc1c(O)c(OC)cc4c1[C@H](Cc1ccc(cc1)Oc1cc(ccc1O)C[C@H]3N(C)CC2)N(C)CC4

1. > 100 µM
2. 2.26 µM
3. > 100 µM
4. 48 µM

----------
# Tested on: RXF 393 renal
# experiment_notes: NCI tumour cell line growth inhibition, 48 h; in the data active = GI50 below about 0.43 µM; inactive = the rest
Form entry, call: pick from true (1) for active, false (0) for inactive

Before answering, review these 6 worked examples.
compound: O=C(CCCCCCSc1nc(-c2ccccc2)cc(-c2ccc(Cl)cc2)n1)NO
class_assignment: false (0)

compound: COc1ccc2c(c1)[nH]c(=O)c1c3cc(C)c(C)cc3cn21
class_assignment: true (1)

compound: CNC(=O)c1cc(OC2CCC(NC(=O)Nc3ccc(Cl)c(C(F)(F)F)c3)CC2)ccn1 (configuration not stated)
class_assignment: false (0)

compound: N=C1C(c2nc(-c3ccc(Br)cc3)cs2)=C(O)CN1Cc1cccnc1
class_assignment: false (0)

compound: N#Cc1cn(C2OC(CO)C(O)C2O)c2ncnc(N)c12 (configuration not stated)
class_assignment: true (1)

compound: Cc1cc(-c2ncc(CC(=O)Nc3ccc(-c4cnccn4)cn3)cc2C)ccn1
class_assignment: false (0)

// param item: COc1cc(-c2nn(-c3ccc(NC(=O)c4ccc(Cl)c(Cl)c4)cc3)cc2-c2ccncc2)ccc1Cl ; yields the recorded call false (0)
